OBSERVED_PROPERTY: IC50

Ask: Form: Entry = Cc1cccc2c1ccc1c3occ(C)c3c3[nH]c(-c4ccc[n+](CC(=O)c5ccc(Br)cc5)c4)nc3c21 [a4] | System = PI3Kα (Homo sapiens, UniProt P42336) | IC50 = ____
Reply: 9.24 µM
